MEASUREMENT_PARAMETERS: human gut metagenome, 24 h, 2 µM; also: call rule not given here
MEASURE_NAME: Bacterial Biotransformation

Worked set:
CNC(=C[N+](=O)[O-])NCCSCc1csc(CN(C)C)n1 : Compound metabolized
CN1C(C(=O)Nc2ccccn2)=C(O)c2sccc2S1(=O)=O : Compound NOT metabolized
C[C@@H](CO)NC(=O)[C@@H]1C=C2c3cccc4[nH]cc(c34)C[C@H]2N(C)C1.O=C(O)/C=C\C(=O)O [ERGONOVINE MALEATE] : Compound metabolized
OC(CCN1CCCCC1)(c1ccccc1)C1CCCCC1 (configuration not stated) : Compound NOT metabolized

Query: Fill in Bacterial Biotransformation for record CN1CCc2c(c3ccccc3n2Cc2ccccc2)C1.CN1CCc2c(c3ccccc3n2Cc2ccccc2)C1.O=S(=O)(O)c1cccc2c(S(=O)(=O)O)cccc12
Reply: Compound metabolized

Query: Read the entry OC(CCN1CCCCC1)(c1ccccc1)C1CC2C=CC1C2 (configuration not stated) and write its reported Bacterial Biotransformation.
Reply: Compound metabolized

Query: Return Bacterial Biotransformation (reported value) for this molecule: Cc1ccc(S(=O)(=O)NC(=O)NN2CCCCCC2)cc1 [TOLAZAMIDE]
Reply: Compound metabolized

Query: Provide measured Bacterial Biotransformation value, entry: CC(C)(C)NC[C@H](O)COc1ccccc1C1CCCC1.CC(C)(C)NC[C@H](O)COc1ccccc1C1CCCC1.O=S(=O)(O)O [PENBUTOLOL SULFATE]
Reply: Compound metabolized

Query: Answer with reported Bacterial Biotransformation of C#C[C@]1(O)CC[C@H]2[C@@H]3CCC4=CC(=O)CC[C@@H]4[C@H]3CC[C@@]21CC
Reply: Compound metabolized

Query: Let me know recorded Bacterial Biotransformation for CC(O)(CS(=O)(=O)c1ccc(F)cc1)C(=O)Nc1ccc(C#N)c(C(F)(F)F)c1 (configuration not stated) [BICALUTAMIDE] , thanks.
Reply: Compound NOT metabolized

Query: Using the record for O=C(CCCN1CCC(O)(c2ccc(Cl)cc2)CC1)c1ccc(F)cc1 , state its measured Bacterial Biotransformation.
Reply: Compound NOT metabolized

Query: Please give measured Bacterial Biotransformation of the following entry: CN1CCN(C2=Nc3cc(Cl)ccc3Nc3ccccc32)CC1
Reply: Compound metabolized

Query: Kindly indicate its recorded Bacterial Biotransformation. Item: CN1CCN(C(=O)O[C@H]2c3nccnc3C(=O)N2c2ccc(Cl)cn2)CC1
Reply: Compound NOT metabolized

* * *

MEASUREMENT_PARAMETERS: human gut metagenome, 24 h, 2 µM
MEASURE_NAME: Bacterial Biotransformation

Worked examples, 4 compounds total:
Fc1ccc([C@@H]2CCNC[C@H]2COc2ccc3c(c2)OCO3)cc1 : Compound NOT metabolized
Nc1ccc(/N=N/c2ccccc2)c(N)n1 : Compound metabolized
CN(C(=O)CN(CCO)CC(=O)N(C)C(C)(C)Cc1ccccc1)C(C)(C)Cc1ccccc1 : Compound metabolized
CN1CCN(C(=O)O[C@H]2c3nccnc3C(=O)N2c2ccc(Cl)cn2)CC1 : Compound NOT metabolized

Could you now consider this next compound?
Query: Return Bacterial Biotransformation for the following compound: CN(C)C(=O)C(CCN1CCC(O)(c2ccc(Cl)cc2)CC1)(c1ccccc1)c1ccccc1 [LOPERAMIDE]
Reply: Compound metabolized

* * *

MEASUREMENT_PARAMETERS: human gut metagenome, 24 h, 2 µM
MEASURE_NAME: Bacterial Biotransformation

Reference set (5 entries):
CCN(CC)C(C)CN1c2ccccc2Sc2ccccc21 (configuration not stated) : Compound metabolized
CN1C[C@H](C(=O)N[C@]2(C)O[C@@]3(O)[C@@H]4CCCN4C(=O)[C@H](Cc4ccccc4)N3C2=O)C=C2c3cccc4[nH]cc(c34)C[C@H]21.CN1C[C@H](C(=O)N[C@]2(C)O[C@@]3(O)[C@@H]4CCCN4C(=O)[C@H](Cc4ccccc4)N3C2=O)C=C2c3cccc4[nH]cc(c34)C[C@H]21.O=C(O)C(O)C(O)C(=O)O [ERGOTAMINE TARTRATE] : Compound metabolized
Cc1ccc(-c2cc(C(F)(F)F)nn2-c2ccc(S(N)(=O)=O)cc2)cc1 : Compound metabolized
CCCC(=O)Nc1ccc(OCC(O)CNC(C)C)c(C(C)=O)c1 (configuration not stated) : Compound metabolized
CCC(COC(=O)c1cc(OC)c(OC)c(OC)c1)(c1ccccc1)N(C)C.O=C(O)/C=C\C(=O)O (configuration not stated) : Compound NOT metabolized

Query: Report measured Bacterial Biotransformation; entry is Clc1ccc(Cn2c(CN3CCCC3)nc3ccccc32)cc1
Reply: Compound NOT metabolized

Query: Answer with reported Bacterial Biotransformation of Cc1ccc(/C(=C\CN2CCCC2)c2ccccn2)cc1
Reply: Compound NOT metabolized
